Target: Neuronal acetylcholine receptor; alpha4/beta2 (Homo sapiens, UniProt P17787+P43681)
Sequence (P17787 whole entry): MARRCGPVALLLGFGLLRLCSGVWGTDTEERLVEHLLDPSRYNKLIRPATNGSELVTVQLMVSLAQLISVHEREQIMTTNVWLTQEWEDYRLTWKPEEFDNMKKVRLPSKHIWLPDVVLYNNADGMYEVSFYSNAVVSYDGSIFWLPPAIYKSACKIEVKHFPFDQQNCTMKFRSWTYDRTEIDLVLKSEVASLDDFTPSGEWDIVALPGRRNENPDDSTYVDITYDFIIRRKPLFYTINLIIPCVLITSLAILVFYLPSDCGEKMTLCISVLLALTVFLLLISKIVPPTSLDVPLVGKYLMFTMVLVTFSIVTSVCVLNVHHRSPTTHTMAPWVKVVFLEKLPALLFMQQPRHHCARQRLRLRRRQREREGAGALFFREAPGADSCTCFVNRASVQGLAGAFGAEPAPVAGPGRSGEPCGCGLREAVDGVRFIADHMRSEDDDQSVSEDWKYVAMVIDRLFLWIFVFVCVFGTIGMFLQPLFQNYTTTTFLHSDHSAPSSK
Sequence (P43681 whole entry): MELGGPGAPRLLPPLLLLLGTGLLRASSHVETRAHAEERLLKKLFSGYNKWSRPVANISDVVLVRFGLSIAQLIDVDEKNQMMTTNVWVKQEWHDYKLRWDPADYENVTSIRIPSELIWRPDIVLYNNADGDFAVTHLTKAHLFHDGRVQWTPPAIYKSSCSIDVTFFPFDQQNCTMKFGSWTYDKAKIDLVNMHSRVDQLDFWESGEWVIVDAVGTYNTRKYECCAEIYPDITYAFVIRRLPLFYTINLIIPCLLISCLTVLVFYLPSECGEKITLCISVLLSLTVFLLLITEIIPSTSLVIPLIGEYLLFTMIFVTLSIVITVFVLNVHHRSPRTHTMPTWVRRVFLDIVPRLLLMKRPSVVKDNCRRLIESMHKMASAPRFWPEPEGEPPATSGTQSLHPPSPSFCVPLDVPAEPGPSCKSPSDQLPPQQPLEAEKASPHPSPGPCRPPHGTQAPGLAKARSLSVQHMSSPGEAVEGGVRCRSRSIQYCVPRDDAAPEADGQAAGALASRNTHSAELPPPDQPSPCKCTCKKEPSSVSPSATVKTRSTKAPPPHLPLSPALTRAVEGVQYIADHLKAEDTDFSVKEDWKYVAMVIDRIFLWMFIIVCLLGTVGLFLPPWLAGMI
Assay: Antagonist activity at human alpha4beta2 nAChR expressed in HEK-tsA201 cells assessed as inhibition of epibatidine-induced intracellular calcium level by fluorescence plate reader analysis
assay endpoint: IC50 (µM)
Express it in µM; write the number only.

CCOc1ccc(C(=O)Nc2cc(C)cc(C)n2)cc1
17.1
CNC1(C)C2CCC(C2)C1(C)C (stereo unspecified) [MECAMYLAMINE]
0.6

Problem: Look up IC50 for this molecule: COc1cc2c3cc1Oc1cc(ccc1O)C[C@@H]1c4c(cc(OC)c(O)c4Oc4ccc(cc4)C[C@@H]3N(C)CC2)CC[N+]1(C)C
Result: 9.2

Problem: Look up IC50 for this molecule: CCCOc1ccc(C(=O)Nc2cnccn2)cc1
Result: 23.2

Problem: Look up IC50 for this molecule: C#CCOc1ccc(C(=O)Nc2cccc(C)n2)cc1
Result: 19.4

Problem: Look up IC50 for this molecule: C=C(C)COc1ccc(C(=O)Nc2cccc(C)n2)cc1
Result: 19.6

* * *

Biological target: Neuronal acetylcholine receptor; alpha3/beta4 (Homo sapiens, UniProt P30926+P32297)
Sequence (P30926 whole entry): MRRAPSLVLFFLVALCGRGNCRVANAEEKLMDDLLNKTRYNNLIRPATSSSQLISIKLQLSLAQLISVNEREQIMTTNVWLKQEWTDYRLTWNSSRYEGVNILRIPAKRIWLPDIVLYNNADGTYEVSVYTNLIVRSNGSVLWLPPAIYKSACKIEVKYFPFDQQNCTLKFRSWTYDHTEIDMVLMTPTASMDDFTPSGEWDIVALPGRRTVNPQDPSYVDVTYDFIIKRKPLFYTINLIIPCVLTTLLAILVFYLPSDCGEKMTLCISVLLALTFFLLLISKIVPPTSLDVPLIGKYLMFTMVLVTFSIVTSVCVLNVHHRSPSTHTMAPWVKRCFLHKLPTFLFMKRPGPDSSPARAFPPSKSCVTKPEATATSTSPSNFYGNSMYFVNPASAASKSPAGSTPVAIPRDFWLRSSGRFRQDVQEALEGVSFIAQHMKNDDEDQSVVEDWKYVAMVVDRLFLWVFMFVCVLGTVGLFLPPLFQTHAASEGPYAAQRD
Sequence (P32297 whole entry): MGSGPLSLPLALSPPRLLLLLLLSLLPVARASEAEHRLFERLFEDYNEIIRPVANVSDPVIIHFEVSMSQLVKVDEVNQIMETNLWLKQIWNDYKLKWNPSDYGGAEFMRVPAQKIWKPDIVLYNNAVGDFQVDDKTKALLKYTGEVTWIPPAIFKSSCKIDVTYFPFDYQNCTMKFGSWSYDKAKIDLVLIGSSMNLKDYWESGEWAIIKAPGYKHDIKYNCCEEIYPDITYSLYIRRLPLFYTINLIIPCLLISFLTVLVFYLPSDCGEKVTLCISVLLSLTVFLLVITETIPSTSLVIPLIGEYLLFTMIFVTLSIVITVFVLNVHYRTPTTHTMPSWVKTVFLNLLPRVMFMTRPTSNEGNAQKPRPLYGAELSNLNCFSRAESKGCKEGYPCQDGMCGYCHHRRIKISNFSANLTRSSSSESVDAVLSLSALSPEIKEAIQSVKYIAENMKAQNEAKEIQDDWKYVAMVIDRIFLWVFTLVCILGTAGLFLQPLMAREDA
Assay: Antagonist activity at human alpha3beta4 nAChR expressed in HEK-tsA201 cells assessed as inhibition of epibatidine-induced intracellular calcium level by fluorescence plate reader analysis
Consider the following compounds and their measured IC50 readings.
Express it in µM; write the number only.

COc1cc2c3cc1Oc1cc(ccc1O)C[C@@H]1c4c(cc(OC)c(O)c4Oc4ccc(cc4)C[C@@H]3N(C)CC2)CC[N+]1(C)C
6.8
C#CCOc1ccc(C(=O)Nc2cccc(C)n2)cc1
21.7
C=C(C)COc1ccc(C(=O)Nc2cccc(C)n2)cc1
24.7

Below: the item to evaluate.
Problem: Which IC50 is reported with Neuronal acetylcholine receptor; alpha3/beta4 (Homo sapiens, UniProt P30926+P32297) for this entry: CCOc1ccc(C(=O)Nc2cc(C)cc(C)n2)cc1 ?
Result: 17.4
